Overview of reported pIC50 across a group of molecules:
assayMethodText: Inhibition of MAOB from baboon liver by spectrophotometry
Parameters: species or system Papio hamadryas
pIC50: −log10 of the molar value.
experimentalEndpoint: pIC50

INSERT INTO measurements (molecularstring, experimentalendpoint, testresult) VALUES
  ('Cn1c(N)c(/N=C/C=C/c2cccc(Cl)c2)c(=O)n(C)c1=O', 'pIC50', 6.22),
  ('Cn1c(=O)c2nc(-c3cccc(Cl)c3)cnc2n(C)c1=O', 'pIC50', 5.31),
  ('Cn1c(N)c(/N=C/c2cccc(Cl)c2)c(=O)n(C)c1=O', 'pIC50', 5.15),
  ('Cn1c(=O)c2nc(/C=C/c3cccc(Cl)c3)cnc2n(C)c1=O', 'pIC50', 6.50),
  ('Cn1c(N)c(/N=C/C=C/c2ccccc2)c(=O)n(C)c1=O', 'pIC50', 4.92);

====

assayMethodText: Inhibition of MAOB from baboon liver by spectrophotometry
Set-up: species or system Papio hamadryas
experimentalEndpoint: Ki (nM)

INSERT INTO measurements (molecularstring, unitspec, testresult) VALUES
  ('Cn1c(N)c(/N=C/C=C/c2cccc(Cl)c2)c(=O)n(C)c1=O', 'nM', 348),
  ('Cn1c(=O)c2nc(-c3cccc(Cl)c3)cnc2n(C)c1=O', 'nM', 2820),
  ('Cn1c(=O)c2nc(/C=C/c3cccc(Cl)c3)cnc2n(C)c1=O', 'nM', 181),
  ('Cn1c(N)c(/N=C/c2cccc(Cl)c2)c(=O)n(C)c1=O', 'nM', 4060),
  ('Cn1c(N)c(/N=C/C=C/c2ccccc2)c(=O)n(C)c1=O', 'nM', 6960);

====

system: Amine oxidase [flavin-containing] B (Mus musculus, UniProt Q8BW75)
Sequence (Q8BW75 whole entry): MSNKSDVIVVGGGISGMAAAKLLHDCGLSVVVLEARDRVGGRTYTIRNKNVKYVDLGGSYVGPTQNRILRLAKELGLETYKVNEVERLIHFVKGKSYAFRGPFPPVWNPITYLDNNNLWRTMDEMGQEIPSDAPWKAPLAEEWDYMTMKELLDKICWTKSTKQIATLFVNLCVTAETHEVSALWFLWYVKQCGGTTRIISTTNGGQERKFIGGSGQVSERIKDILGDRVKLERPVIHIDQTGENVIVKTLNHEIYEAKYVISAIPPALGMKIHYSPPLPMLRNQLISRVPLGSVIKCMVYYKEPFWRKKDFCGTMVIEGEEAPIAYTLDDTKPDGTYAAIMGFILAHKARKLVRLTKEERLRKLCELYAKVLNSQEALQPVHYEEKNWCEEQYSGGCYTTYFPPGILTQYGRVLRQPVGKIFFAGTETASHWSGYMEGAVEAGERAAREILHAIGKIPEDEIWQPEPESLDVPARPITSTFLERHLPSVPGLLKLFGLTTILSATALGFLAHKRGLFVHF
pKi: −log10 of the molar value.
experimentalEndpoint: pKi

INSERT INTO results (molecularstring, system, testresult) VALUES
  ('Cn1c(=O)c2c(nc(/C=C/c3cccc(Cl)c3)n2C)n(C)c1=O', 'Amine oxidase [flavin-containing] B (Mus musculus, UniProt Q8BW75)', 7.00);

====

assayMethodText: Inhibition of recombinant NOS from rat brain
pKi: −log10 of the molar value.
experimentalEndpoint: pKi

INSERT INTO results (compound, experimentalendpoint, testresult) VALUES
  ('C[C@H](O)[C@H](O)C1CNc2nc(N)nc(N)c2N1 (stereo partly specified)', 'pKi', 7.89);
